Tested on: LHRH binding sites on human ovarian cancer cells (EFO-27);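 further: Cell-associated radioactivity on confluent EFO-27 monolayers in 96-well plates, measured by microplate scintillation counting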
List of EC50 values.
Please respond with the number in nM and leave the unit unwritten.

[
  {
    "compound": "CN(CC(=O)N[C@@H](Cc1c[nH]cn1)C(=O)N[C@@H](Cc1c[nH]c2ccccc12)C(=O)N[C@@H](CO)C(=O)N[C@@H](Cc1c[nH]cn1)C(=O)N[C@H](CCCNC(=N)N)C(=O)N[C@@H](Cc1c[nH]c2ccccc12)C(=O)N[C@@H](Cc1cccnc1)C(=O)N1CCC[C@H]1C(=O)NNC(N)=O)C(=O)CN1CCN(CC(=O)O)CCN(CC(=O)O)CCN(CC(=O)O)CC1",
    "result units": "nM",
    "EC50": 17400
  },
  {
    "compound": "N=C(N)NCCC[C@H](NC(=O)[C@H](N)Cc1ccc2ccccc2c1)C(=O)N[C@@H](Cc1c[nH]c2ccccc12)C(=O)N[C@@H](CO)C(=O)N[C@@H](Cc1c[nH]cn1)C(=O)N[C@H](CCCNC(=N)N)C(=O)N[C@@H](Cc1c[nH]c2ccccc12)C(=O)N[C@@H](Cc1ccc(C(=O)c2ccccc2)cc1)C(=O)N1CCC[C@H]1C(=O)NCCOCCNC(=O)CN1CCN(CC(=O)O)CCN(CC(=O)O)CCN(CC(=O)O)CC1 [compound 2991]",
    "result units": "nM",
    "EC50": 210
  },
  {
    "compound": "CNCC(=O)N[C@@H](CCCNC(=N)N)C(=O)N[C@@H](Cc1c[nH]c2ccccc12)C(=O)N[C@@H](CO)C(=O)N[C@@H](Cc1c[nH]cn1)C(=O)N[C@H](CCCNC(=N)N)C(=O)N[C@@H](Cc1c[nH]c2ccccc12)C(=O)N[C@@H](Cc1ccc(C(=O)c2ccccc2)cc1)C(=O)N1CCC[C@H]1C(=O)NCC1CCCCN1C(=O)CN1CCN(CC(=O)O)CCN(CC(=O)O)CCN(CC(=O)O)CC1 (some centres unmarked)",
    "result units": "nM",
    "EC50": 200
  },
  {
    "compound": "N=C(N)NCCC[C@H](NC(=O)[C@H](N)Cc1ccc2ccccc2c1)C(=O)N[C@@H](Cc1c[nH]c2ccccc12)C(=O)N[C@@H](CO)C(=O)N[C@@H](Cc1c[nH]cn1)C(=O)N[C@H](CCCNC(=N)N)C(=O)N[C@@H](Cc1c[nH]c2ccccc12)C(=O)N[C@@H](Cc1ccc(C(=O)c2ccccc2)cc1)C(=O)N1CCC[C@H]1C(=O)NCC(=O)NCCCCNC(=O)CN1CCN(CC(=O)O)CCN(CC(=O)O)CCN(CC(=O)O)CC1 [compound 2990]",
    "result units": "nM",
    "EC50": 30200
  }
]

Next up:
Assay LHRH binding sites on human ovarian cancer cells (EFO-27), sample N=C(N)NCCC[C@H](NC(=O)[C@H](Cc1ccc(C(=O)O)cc1)NC(=O)CN1CCN(CC(=O)O)CCN(CC(=O)O)CCN(CC(=O)O)CC1)C(=O)N[C@@H](Cc1c[nH]c2ccccc12)C(=O)N[C@@H](CO)C(=O)N[C@@H](Cc1c[nH]cn1)C(=O)N[C@H](CCCNC(=N)N)C(=O)N[C@@H](Cc1c[nH]c2ccccc12)C(=O)N[C@@H](Cc1ccc(C(=O)c2ccccc2)cc1)C(=O)N1CCC[C@H]1C(=O)NNC(N)=O , EC50 read: 2000
